B1: TMEM192 (parent)
chain: ILGKVILWILHLLLECYIQYHHSK

variants of: B1; assay: protein stability index of a GFP-peptide fusion (GPS, HEK-293T) (PSI 1-6); higher = more stable; details: c terminus: a fixed tail appended;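 note: lentivirally expressed fusions sorted by FACS into six bins by GFP to DsRed ratio, PSI derived from sequencing read proportions per bin multiplied by bin number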
The following variants are listed with their measured protein stability index values.
measured_property: protein stability index

mutation: K24L
recorded_measurement: 2.65
//
mutation: H21Y
recorded_measurement: 4.47
//
mutation: K4S
recorded_measurement: 2.9
//
mutation: V5N
recorded_measurement: 2.55
//
mutation: L14M
recorded_measurement: 2.95
//
mutation: L12Q
recorded_measurement: 4.15
//
mutation: L12P
recorded_measurement: 3.07
//
mutation: V5Q
recorded_measurement: 2.86
//
mutation: L2T
recorded_measurement: 3.29
//
mutation: L12D
recorded_measurement: 3.31
//
mutation: K4V
recorded_measurement: 2.92
//
mutation: Y20P
recorded_measurement: 3.57
//
mutation: W8Y
recorded_measurement: 2.98
//
mutation: S23F
recorded_measurement: 2.9
//
mutation: Q19A
recorded_measurement: 2.58
//
mutation: L2V
recorded_measurement: 3.54
//
mutation: W8H
recorded_measurement: 3.31
//
mutation: C16P
recorded_measurement: 2.88
//
mutation: L12H
recorded_measurement: 2.19
//
mutation: L7C
recorded_measurement: 2.19
//
mutation: S23I
recorded_measurement: 2.68
//
mutation: H21I
recorded_measurement: 3.57

These entries and their values trace back to the supplement of paper PMC10567573.
